meta.source: a melting point compilation (Tetko et al.; mined from patent text by program, amines drawn as free bases though some values may be those of a salt)

# melting point listing for each entry below
Property name: melting point

[
  {
    "Molecule": "Brc1ccc(C2(Cn3cncn3)OCCO2)cc1",
    "Result value": "136 °C"
  },
  {
    "Molecule": "CCNC(=O)C(C)(Cc1cc2ccccc2s1)C(N)=O (stereo not given)",
    "Result value": "141 to 143 °C"
  },
  {
    "Molecule": "CC(=O)N(c1ccccc1)c1[nH]c2ccccc2c1Sc1ccccc1",
    "Result value": "66 to 68 °C"
  },
  {
    "Molecule": "CC1OC(=O)Nc2ccc(-c3cccc(F)c3)cc21 (stereo not given)",
    "Result value": "160 to 161 °C"
  },
  {
    "Molecule": "COC(=O)C(Cc1ccccc1)Oc1c(Br)cc(-c2ccc(-c3nc(-c4ccc(C(F)(F)F)cc4)oc3C)cc2)cc1Br (stereo not given)",
    "Result value": "70 to 72 °C"
  },
  {
    "Molecule": "O=C(Cc1ccccc1)Nc1ccc(NC(=O)OCc2ccccc2)c(O)c1",
    "Result value": "252 °C"
  },
  {
    "Molecule": "O=C1CC(COC(c2ccccc2)(c2ccccc2)c2ccccc2)=NC=C1OCc1ccccc1",
    "Result value": "233 to 235 °C"
  },
  {
    "Molecule": "CCCc1c(OCCCOc2ccc(C(=O)OCC)cc2)ccc(C(C)=O)c1O",
    "Result value": "86 to 87 °C"
  },
  {
    "Molecule": "Clc1cccc(C2CCN(CCCOc3ccc4scnc4c3)CC2)c1Cl",
    "Result value": "114 to 116 °C"
  },
  {
    "Molecule": "OCCN=Cc1ccc(Br)cc1",
    "Result value": "79 to 81 °C"
  },
  {
    "Molecule": "O=C(N[C@H]1CN(C(=O)NS(=O)(=O)N2CCN(NC(=O)OCc3ccccc3)C2=O)C1=O)OCc1ccccc1",
    "Result value": "75.7 to 116 °C"
  },
  {
    "Molecule": "COC(=O)C(=Cc1ccc2c(c1)CCO2)N=[N+]=[N-]",
    "Result value": "77 to 80 °C"
  },
  {
    "Molecule": "COc1ccccc1C(=O)c1cc([N+](=O)[O-])ccc1SC",
    "Result value": "119 to 122 °C"
  },
  {
    "Molecule": "COc1ccc(-c2c3ccccc3cc3sc4ccccc4c23)cc1C#N",
    "Result value": "230 to 232 °C"
  },
  {
    "Molecule": "CC1=C(CC#N)CCc2ccccc21",
    "Result value": "48 to 49 °C"
  },
  {
    "Molecule": "CC(C)C[C@H](NC(=O)OC(C)(C)C)[C@@H](O)CC(=O)NN1CCN(c2cccc(C(F)(F)F)c2)CC1",
    "Result value": "107 to 109 °C"
  },
  {
    "Molecule": "Cc1cc(-c2cc(CO)c(=O)n(Cc3ccc(Cl)cc3)n2)ccc1F",
    "Result value": "157 to 158 °C"
  },
  {
    "Molecule": "COCc1nnc(-c2cccnc2)n1-c1c(C)c(Cl)cc2nc(OC)c(OC)nc12",
    "Result value": "166 to 168 °C"
  },
  {
    "Molecule": "Cc1nc2ccc(N3CCN(CCCC(=O)c4ccc(F)cc4)CC3)nc2nc1C",
    "Result value": "155 to 156 °C"
  },
  {
    "Molecule": "CC1(C)NC(=O)N(c2ccc(I)c(C(F)(F)F)c2)C1=O",
    "Result value": "164 to 165 °C"
  }
]
